- Tested on: Staphylococcus aureus FDA 209P
Entries and their measured MIC follow.

Worked set:
- compound: "CC(N)C(=O)NC(CO)C(=O)NC(CO)C(=O)NC(CCCCN)C(O)CC(=O)OCC1=C(C(=O)O)N2C(=O)C(NC=O)(NC(=O)CCCC(N)C(=O)O)C2SC1 (stereo not drawn) [TAN-591C]"
  MIC: "> 100 µg/mL"
- compound: "CC(N)C(=O)NC(CO)C(=O)NC(CO)C(=O)NC(CCCNC(=N)N)C(O)CC(=O)OCC1=C(C(=O)O)N2C(=O)C(NC=O)(NC(=O)CCCC(N)C(=O)O)C2SC1 (stereo not drawn) [TAN-592C]"
  MIC: "> 50 µg/mL"
- compound: "CC(N)C(=O)NC(CO)C(=O)NC(CO)C(=O)NC(CCCNC(=N)N)C(O)CC(=O)OCC1=C(C(=O)O)N2C(=O)C(NC(=O)CCCC(N)C(=O)O)C2SC1 (stereo not drawn) [TAN-592F]"
  MIC: "50 µg/mL"
- compound: "N=C(N)NCCCC(NC(=O)C(N)CO)C(O)CC(=O)OCC1=C(C(=O)O)N2C(=O)C(NC=O)(NC(=O)CCCC(N)C(=O)O)C2SC1 (stereo not drawn) [TAN-592A]"
  MIC: "> 50 µg/mL"
- compound: "NCCCCC(NC(=O)C(N)CO)C(O)CC(=O)OCC1=C(C(=O)O)N2C(=O)C(NC=O)(NC(=O)CCCC(N)C(=O)O)C2SC1 (stereo not drawn) [TAN-591A]"
  MIC: "> 100 µg/mL"

Consider now this further compound.
Look up MIC: N=C(N)NCCCC(NC(=O)C(CO)NC(=O)C(N)CO)C(O)CC(=O)OCC1=C(C(=O)O)N2C(=O)C(NC=O)(NC(=O)CCCC(N)C(=O)O)C2SC1 (stereo not drawn) [TAN-592B]
> 50 µg/mL

====

Reported MIC values, Serratia marcescens IFO 12648.

Worked set:
- molecule: "N=C(N)NCCCC(NC(=O)C(N)CO)C(O)CC(=O)OCC1=C(C(=O)O)N2C(=O)C(NC(=O)CCCC(N)C(=O)O)C2SC1 (stereo not drawn) [TAN-592D]"
  MIC: "> 50 µg/mL"
- molecule: "N=C(N)NCCCC(NC(=O)C(CO)NC(=O)C(N)CO)C(O)CC(=O)OCC1=C(C(=O)O)N2C(=O)C(NC(=O)CCCC(N)C(=O)O)C2SC1 (stereo not drawn) [TAN-592E]"
  MIC: "> 50 µg/mL"

Consider now this further molecule.
Query the reported MIC for Serratia marcescens IFO 12648; item: CC(N)C(=O)NC(CO)C(=O)NC(CO)C(=O)NC(CCCNC(=N)N)C(O)CC(=O)OCC1=C(C(=O)O)N2C(=O)C(NC(=O)CCCC(N)C(=O)O)C2SC1 (stereo not drawn) [TAN-592F]
> 50 µg/mL
